B1: POU domain, class 3, transcription factor 3, residues 320 to 388; numbered along this chain, P20264 (parent)
chain: DDLEQFAKQFKQRRIKLGFTQADVGLALGTLYGNVFSQTTICRFEALQLSFKNMCKLKPLLNKWLEEAD

variants of: B1; test: abundance fitness (aPCA) (normalised: wild type 0, dead -1); higher = more abundant; growth selection in yeast, the domain comes from the species named; settings: Homo sapiens
Returns rule met if the recorded abundance fitness is greater than or equal to -0.2, and rule not met otherwise.

{"columns": ["mutantLabel", "answerLabel"],
 "data": [
  ["G33M", "rule not met"],
  ["F44G", "rule not met"],
  ["L31C", "rule not met"],
  ["T30R", "rule met"],
  ["T30P", "rule met"],
  ["A27G", "rule not met"],
  ["T39E", "rule met"],
  ["T30I", "rule not met"],
  ["T39Y", "rule not met"],
  ["D23M", "rule not met"],
  ["G29H", "rule met"],
  ["G33V", "rule not met"],
  ["R43D", "rule not met"],
  ["G29N", "rule met"],
  ["V35C", "rule not met"],
  ["R43P", "rule not met"],
  ["G25N", "rule not met"],
  ["V35T", "rule met"],
  ["T40D", "rule not met"],
  ["G33Y", "rule not met"],
  ["Q38K", "rule met"],
  ["D23R", "rule met"]
]}
